- target.entity: HLA-A*02:01 (Homo sapiens, UniProt P04439, D140Y/D185E/D98H/E176V/E277Q/G131W/G231S/I119V/I121R/I166T/I218V/L300P/L318F/N151K/N90K/P208A/P217A/Q86G/Q94H/R138H/R169H/T345S)
- test.name: MHC binding assay: UV-ligand exchange with β2m ELISA (peptide exchange yield)
- measurement.conditions: MHC class I binding score; binding to HLA-A*02:01 ranged by peptide exchange yield (UV-ligand exchange, β2m ELISA)
reported.property: Peptide Exchange

Previously resolved entries follow.
[[record]]
substance = "352 (ALVFELHYV; listed as Homo sapiens) [compound 352]"
result = "″+++″ (≥50 = +++)"

[[record]]
substance = "344 (VLAFENPQV; listed as Homo sapiens) [compound 344]"
result = "″+++″ (≥50 = +++)"

[[record]]
substance = "109 (KLWEGLTELV; listed as Homo sapiens) [compound 109]"
result = "″+++″ (≥50 = +++)"

[[record]]
substance = "327 (VLIKWFPEV; listed as Homo sapiens) [compound 327]"
result = "″++++″ (≥75% = ++++)"

[[record]]
substance = "363 (ITTEVVNELYV; listed as Homo sapiens) [compound 363]"
result = "″+++″ (≥50 = +++)"

[[record]]
substance = "315 (LVYEAPETV; listed as Homo sapiens) [compound 315]"
result = "″+++″ (≥50 = +++)"


I would be grateful if you could share the reported Peptide Exchange for 147 (SILETVATL; listed as Homo sapiens) [compound 147] .
″+++″ (≥50 = +++)

Every entry's value here was drawn from patent US10117916B2.
